Molecular target: UniProt P08684
Sequence (P08684 whole entry): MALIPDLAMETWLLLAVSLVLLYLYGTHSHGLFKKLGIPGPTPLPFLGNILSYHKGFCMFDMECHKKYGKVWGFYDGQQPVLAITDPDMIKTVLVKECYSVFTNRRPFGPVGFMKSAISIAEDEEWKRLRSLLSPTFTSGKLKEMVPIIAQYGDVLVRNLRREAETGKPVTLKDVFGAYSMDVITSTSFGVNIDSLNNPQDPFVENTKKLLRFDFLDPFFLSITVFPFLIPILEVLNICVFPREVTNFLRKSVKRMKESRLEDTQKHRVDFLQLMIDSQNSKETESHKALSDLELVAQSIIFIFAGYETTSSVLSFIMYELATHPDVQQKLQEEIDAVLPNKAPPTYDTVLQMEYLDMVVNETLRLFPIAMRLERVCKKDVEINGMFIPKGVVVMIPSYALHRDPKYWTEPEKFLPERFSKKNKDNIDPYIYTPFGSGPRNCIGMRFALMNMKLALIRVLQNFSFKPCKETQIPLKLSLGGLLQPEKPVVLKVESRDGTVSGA
Assay: luminogenic P450-Glo CYP450 inhibition assay, rCYP3A4
Settings: Median IC50 (Range) rCYP3A4, median (range), three independent experiments
quantity-kind: pIC50
Numbers only, as −log10 of the molar value.

Give recorded pIC50. C=C1CCC[C@]2(C)CC[C@@H](C(C)(C)O)C[C@@H]12 [β-Eudesmol] 3.66

====

Target: rCYP2D6 (Homo sapiens)
Assay: luminogenic P450-Glo CYP450 inhibition assay, rCYP2D6
Details: read-out: Median IC50 (Range) rCYP2D6; median (range), three independent experiments
pIC50: −log10 of the molar value.
quantity-kind: pIC50

Let me know recorded pIC50 for C/C=C/C#CC#C/C=C/c1ccco1 , thanks. < 3.16

====

Molecular target: rCYP2C19 (Homo sapiens)
Sequence (P33261 whole entry): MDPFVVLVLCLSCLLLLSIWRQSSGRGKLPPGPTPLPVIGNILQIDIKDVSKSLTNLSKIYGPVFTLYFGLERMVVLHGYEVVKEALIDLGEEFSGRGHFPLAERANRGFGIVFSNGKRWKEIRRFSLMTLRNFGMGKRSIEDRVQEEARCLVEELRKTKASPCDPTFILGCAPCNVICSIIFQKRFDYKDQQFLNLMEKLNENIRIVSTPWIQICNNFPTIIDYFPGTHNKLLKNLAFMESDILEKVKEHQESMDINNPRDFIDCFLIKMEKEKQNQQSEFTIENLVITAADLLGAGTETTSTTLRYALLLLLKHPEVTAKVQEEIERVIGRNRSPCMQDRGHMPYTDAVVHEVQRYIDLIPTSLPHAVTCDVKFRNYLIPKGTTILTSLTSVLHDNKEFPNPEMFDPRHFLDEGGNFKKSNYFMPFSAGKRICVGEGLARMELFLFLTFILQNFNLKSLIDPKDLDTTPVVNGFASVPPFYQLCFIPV
Test: luminogenic P450-Glo CYP450 inhibition assay, rCYP2C19
Details: read-out: Median IC50 (Range) rCYP2C19; median (range), three independent experiments
quantity-kind: IC50

Recall the reported IC50 of C/C=C/C#CC#C/C=C/c1ccco1 on rCYP2C19 (Homo sapiens) and write it down. > 686 µM

====

Molecular target: rCYP2D6 (Homo sapiens, UniProt P10635)
Sequence (P10635 whole entry): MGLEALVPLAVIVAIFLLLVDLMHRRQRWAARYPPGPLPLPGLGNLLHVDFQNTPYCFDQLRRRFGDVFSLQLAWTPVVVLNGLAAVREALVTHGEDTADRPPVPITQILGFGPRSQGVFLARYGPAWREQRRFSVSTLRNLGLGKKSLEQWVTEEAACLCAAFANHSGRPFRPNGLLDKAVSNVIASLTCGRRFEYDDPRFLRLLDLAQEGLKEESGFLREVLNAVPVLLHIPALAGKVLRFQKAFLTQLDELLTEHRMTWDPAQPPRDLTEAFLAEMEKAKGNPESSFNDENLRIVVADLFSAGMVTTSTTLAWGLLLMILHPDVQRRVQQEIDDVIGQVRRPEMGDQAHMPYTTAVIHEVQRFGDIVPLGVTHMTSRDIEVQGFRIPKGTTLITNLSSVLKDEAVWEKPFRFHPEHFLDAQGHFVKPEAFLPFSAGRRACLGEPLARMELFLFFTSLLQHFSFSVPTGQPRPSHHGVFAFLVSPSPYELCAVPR
Assay: luminogenic P450-Glo CYP450 inhibition assay, rCYP2D6
Details: Median IC50 (Range) rCYP2D6, median (range), three independent experiments
pIC50: −log10 of the molar value.
quantity-kind: pIC50

Report value: pIC50, system: rCYP2D6 (Homo sapiens, UniProt P10635), molecule: C=C1CCC[C@]2(C)CC[C@@H](C(C)(C)O)C[C@@H]12 < 3.25

====

Biological target: UniProt:P05177
Sequence (P05177 whole entry): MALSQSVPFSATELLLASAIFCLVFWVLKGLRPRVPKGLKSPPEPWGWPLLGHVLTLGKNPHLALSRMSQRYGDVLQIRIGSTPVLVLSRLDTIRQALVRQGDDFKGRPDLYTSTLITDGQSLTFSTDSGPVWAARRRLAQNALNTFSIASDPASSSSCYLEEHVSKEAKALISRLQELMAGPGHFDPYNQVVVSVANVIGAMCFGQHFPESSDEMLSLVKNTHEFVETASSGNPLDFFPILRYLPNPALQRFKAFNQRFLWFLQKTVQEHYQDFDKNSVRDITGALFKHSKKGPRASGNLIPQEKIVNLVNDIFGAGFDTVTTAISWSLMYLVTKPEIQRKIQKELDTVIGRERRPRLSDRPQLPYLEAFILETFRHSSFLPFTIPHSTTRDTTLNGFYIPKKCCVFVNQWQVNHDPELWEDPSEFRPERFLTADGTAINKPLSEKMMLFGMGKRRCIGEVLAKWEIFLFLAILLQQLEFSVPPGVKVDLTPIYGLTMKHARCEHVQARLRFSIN
Experiment: luminogenic P450-Glo CYP450 inhibition assay, rCYP1A2
Settings: Median IC50 (Range) rCYP1A2, median (range), three independent experiments
quantity-kind: IC50

Specify IC50 for C=C1CCC[C@]2(C)CC[C@@H](C(C)(C)O)C[C@@H]12 and stop. > 562 µM
